measuredTarget: T1, human C5 (human, UniProt P01031 19-673; P01031 678-1676, limits assumed)
T1 construct: In the sheep RBC lysis assay, C5 is the C5 of normal human serum; also called huC5
protocolText: BLI (Gator), antibody on anti-human IgG Fc probes, 40 nM human C5 bound 600 s at pH 7.4, 600 s dissociation at pH 7.4
measuredProperty: Dissociation pH 7.4 (%)
The reply should be a number in %, with the unit left off.

The recorded Dissociation pH 7.4 (%) for E54H (humanized anti-C5a IgG4 antibody) (antibody, V domains shown, Carries F29H and E54H in VH and Y96H in VL (Kabat) relative to 16D10) VH: QVQLVQSGAEVKKPGSSVKVSCKASGYTHTDHIIHWMRQAPGQGLEWMGYIYPRHGWTNYNENFKGRVTITADKSTSTAYMELSSLRSEDTAVYYCARERNLEYFDYWGQGTTVTVSS VL: DIVLTQSPASLAVSPGQRATITCKASQSVDYEGFNYMNWYQQKPGQPPKLLIYAASNLDSGVPARFSGSGSGTDFTLTINPVEAEDTANYYCQQSNEDPHTFGGGTKVEIKR is 5.39

The recorded Dissociation pH 7.4 (%) for 16D10 (humanized anti-C5a IgG4 antibody) (antibody, V domains shown, also called WT (16D10); WT) VH: QVQLVQSGAEVKKPGSSVKVSCKASGYTFTDHIIHWMRQAPGQGLEWMGYIYPREGWTNYNENFKGRVTITADKSTSTAYMELSSLRSEDTAVYYCARERNLEYFDYWGQGTTVTVSS VL: DIVLTQSPASLAVSPGQRATITCKASQSVDYEGFNYMNWYQQKPGQPPKLLIYAASNLDSGVPARFSGSGSGTDFTLTINPVEAEDTANYYCQQSNEDPYTFGGGTKVEIKR is 1.16

The recorded Dissociation pH 7.4 (%) for N97H (humanized anti-C5a IgG4 antibody) (antibody, V domains shown, Carries F29H and N97H in VH and Y96H in VL (Kabat)) VH: QVQLVQSGAEVKKPGSSVKVSCKASGYTHTDHIIHWMRQAPGQGLEWMGYIYPREGWTNYNENFKGRVTITADKSTSTAYMELSSLRSEDTAVYYCARERHLEYFDYWGQGTTVTVSS VL: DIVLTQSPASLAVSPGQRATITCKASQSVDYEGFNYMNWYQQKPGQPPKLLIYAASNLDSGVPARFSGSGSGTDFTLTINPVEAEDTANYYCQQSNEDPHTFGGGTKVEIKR is 4.49

The recorded Dissociation pH 7.4 (%) for N92H (humanized anti-C5a IgG4 antibody) (antibody, V domains shown, Carries F29H in VH and N92H and Y96H in VL (Kabat); also called N92H antibody) VH: QVQLVQSGAEVKKPGSSVKVSCKASGYTHTDHIIHWMRQAPGQGLEWMGYIYPREGWTNYNENFKGRVTITADKSTSTAYMELSSLRSEDTAVYYCARERNLEYFDYWGQGTTVTVSS VL: DIVLTQSPASLAVSPGQRATITCKASQSVDYEGFNYMNWYQQKPGQPPKLLIYAASNLDSGVPARFSGSGSGTDFTLTINPVEAEDTANYYCQQSHEDPHTFGGGTKVEIKR is 8.29
